Listed compounds paired with reported growth
# Tested on: OVCAR-3 ovarian
# EXPERIMENTAL_DETAILS: NCI-60 one-dose screen, 48 h (100 = growth as untreated, 0 = no growth, -100 = all killed)
# TEST_CONDITIONS: 10 µM
The panel holds about 83,000 compounds, 20% with a hit somewhere; the sample as a whole holds those more often. Activity calls are given as the source filed them. The calls were made as follows: active = growth percent below 10; inactive = the rest.

COMPOUND	SYSTEM_UNDER_TEST	growth
COc1cc(-c2cc(/C=C/C(=O)c3ccc(F)c(F)c3)[nH]n2)cc(OC)c1OC	OVCAR-3 ovarian	49.6% (inactive)
N=C(N)c1ccc(-c2ccc(-c3cccs3)o2)cc1	OVCAR-3 ovarian	71.7% (inactive)
CC(=O)N(C)c1ccc(Nc2ccc(Nc3ccc(N(C)C(C)=O)cc3)c3c2C(=O)c2ccccc2C3=O)cc1	OVCAR-3 ovarian	78.7% (inactive)
O=C(Nc1cccc(Cl)c1)Nc1nccs1	OVCAR-3 ovarian	114% (inactive)
COc1cc(-c2cc(/C=C/C(=O)c3ccc(Cl)c(Cl)c3)[nH]n2)cc(OC)c1OC	OVCAR-3 ovarian	86.5% (inactive)
O=C(CCCCC[P+](c1ccccc1)(c1ccccc1)c1ccccc1)NC(COC(=O)C(Cl)Cl)(COC(=O)C(Cl)Cl)COC(=O)C(Cl)Cl	OVCAR-3 ovarian	103% (inactive)
O=C1/C(=C\c2ccc(Br)cc2)CN(C(=O)c2ccccc2F)C/C1=C\c1ccc(Br)cc1	OVCAR-3 ovarian	-52.6% (active)
CCC(=O)N1C/C(=C/c2ccc(Br)cc2)C(=O)/C(=C/c2ccc(Br)cc2)C1	OVCAR-3 ovarian	-62.6% (active)
O=C(Nc1cccc(-n2cc(-c3ccncc3)c(-c3cc(O)cc(Cl)c3)n2)c1)c1cc(C(F)(F)F)cc(C(F)(F)F)c1	OVCAR-3 ovarian	15.2% (inactive)
Cc1ccc(S(=O)(=O)OCCN(CCOS(=O)(=O)c2ccc(C)cc2)c2c[nH]c(=O)[nH]c2=O)cc1	OVCAR-3 ovarian	120% (inactive)
CC1(C)CCC(=NNC(N)=S)CC1	OVCAR-3 ovarian	112% (inactive)
COc1cc2c(cc1OCCCCCCN1CCN(CC(=O)Nc3ccc(Cl)cc3C(=O)c3ccccc3Cl)CC1)N=CC1CCCN1C2=O (stereo not drawn)	OVCAR-3 ovarian	-91.9% (active)
Oc1[nH]c2ccc(Cl)cc2c1/C=c1/ccc2c(c1)N=C(c1cc(F)cc(F)c1)N=2	OVCAR-3 ovarian	7.12% (active)
COC(=O)[C@@H]1[C@H](O)[C@H](C)[C@H](O)[C@@](C)(O)/C=C\C=C(C)C(=O)Nc2c(C)c(OC(C)=O)c3c(c2O)C(=O)C(C)=C2OCOC(=C23)C(C)=C[C@@](C)(O)[C@H](O)[C@@H](C)[C@H]1OC(C)=O	OVCAR-3 ovarian	112% (inactive)
Cc1c(Cl)cccc1NC(=O)c1sc2nc3c(cc2c1N)C(=O)CCC3	OVCAR-3 ovarian	-40.1% (active)
Cc1ccc(C(=O)Nc2cccc(F)c2)cc1NC(=O)C1(c2ncnc3[nH]ccc23)CC1	OVCAR-3 ovarian	103% (inactive)
CCCCCCCCCCCCCCCCCCOCC(COCCOCC[N+]1(CCCCCC(=O)[O-])CCCC1)Oc1ncccn1 (stereo not drawn)	OVCAR-3 ovarian	62.6% (inactive)
COC(=O)C1=NNC(=S)N(c2cc(C)[nH]n2)C(=O)C1	OVCAR-3 ovarian	108% (inactive)
CC(=O)c1cc(Cl)ccc1O	OVCAR-3 ovarian	102% (inactive)
COc1cc(C(=O)/C=C/c2cc(-c3cc(OC)c(OC)c(OC)c3)n[nH]2)cc(OC)c1OC	OVCAR-3 ovarian	7.64% (active)
Cc1ccc(N=Nc2c(N)nc(N)[nH]c2=O)cc1C	OVCAR-3 ovarian	110% (inactive)
COc1ccc(-c2nc(-c3nc4ccc(OC)cc4[nH]3)cc3c2[nH]c2ccccc23)cc1	OVCAR-3 ovarian	51.9% (inactive)
C#Cc1ccc(-n2c(/C=C/c3ccc(C(F)(F)F)cc3)nc3ncccc3c2=O)cc1	OVCAR-3 ovarian	-8.86% (active)
